- Subject of test: human CB2 receptors (Homo sapiens)
- Construct: expressed in transfected cells; host or cells: CHO cells
- Sequence (P34972 whole entry): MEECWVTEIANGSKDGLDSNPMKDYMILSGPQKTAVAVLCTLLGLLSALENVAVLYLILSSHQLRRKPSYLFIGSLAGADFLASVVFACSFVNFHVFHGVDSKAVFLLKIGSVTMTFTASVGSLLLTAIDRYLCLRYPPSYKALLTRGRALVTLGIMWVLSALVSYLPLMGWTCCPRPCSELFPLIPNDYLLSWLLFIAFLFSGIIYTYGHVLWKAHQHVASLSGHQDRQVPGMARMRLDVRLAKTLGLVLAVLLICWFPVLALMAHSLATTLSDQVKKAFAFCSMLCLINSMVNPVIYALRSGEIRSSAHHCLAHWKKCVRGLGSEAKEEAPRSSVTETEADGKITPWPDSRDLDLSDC
- Assay summary: cAMP assay
- Format: cell-based
Experimental readout: log10 of EC50 (log10 of the value in µM)
Transform log10 | Measure EC50 | Unit µM

Past entries and their recorded results:
Lookup: Fill in: log10 of EC50 of CC(C)C[C@H](NC(=O)c1ccc(N2CC(F)(C3CC3)C2)c(OCC2CC2)n1)C(N)=O is ___
Found: -1.70

Lookup: Fill in: log10 of EC50 of Cc1nc(C(C)(C)NC(=O)c2ccc(OCC3CC3)c(-c3cccc(Cl)c3)n2)no1 is ___
Found: -1.37

Lookup: Fill in: log10 of EC50 of NC(=O)[C@@H]1CC(F)(F)CN1C(=O)c1ccc(N2CCC(O)(C(F)(F)F)C2)c(OCC2CC2)n1 (stereo partly shown) is ___
Found: 0.23

Lookup: Fill in: log10 of EC50 of Cc1nc([C@H](CC2CC2)NC(=O)c2ccc(OCC3CC3)c(Cl)n2)no1 is ___
Found: -0.19

Lookup: Fill in: log10 of EC50 of COC1CN(c2ccc(C(=O)N[C@@H](CC3CC3)C(N)=O)nc2OCC2CC2)C1 is ___
Found: -1.20

New cases:
Lookup: Fill in: log10 of EC50 of CSCC[C@H](NC(=O)c1ccc(OCC2CC2)c(Cl)n1)C(N)=O is ___
Found: -0.01

Lookup: Fill in: log10 of EC50 of CC(C)(NC(=O)c1ccc(N2CC3(COC3)C2)c(OCC2CC2)n1)c1nccs1 is ___
Found: -0.87

Lookup: Fill in: log10 of EC50 of COC1CN(c2ccc(C(=O)NC(C)(C)c3noc(C)n3)nc2OCC2CC2)C1 is ___
Found: -1.06

Lookup: Fill in: log10 of EC50 of CC(C)C[C@H](NC(=O)c1ccc(N2CCC(O)(C(F)(F)F)C2)c(OCC2CC2)n1)C(N)=O (stereo partly shown) is ___
Found: 0.28

Lookup: Fill in: log10 of EC50 of CC(C)C[C@H](NC(=O)c1ccc(N2CCC3(C2)CC3(F)F)c(OCC2CC2)n1)C(N)=O (stereo partly shown) is ___
Found: -1.42

Lookup: Fill in: log10 of EC50 of NC(=O)CC1(NC(=O)c2ccc(N3CCC4(C3)CC4(F)F)c(OCC3CC3)n2)COC1 (stereo not shown) is ___
Found: -1.22

Lookup: Fill in: log10 of EC50 of NC(=O)[C@@H]1CC(F)(F)CN1C(=O)c1ccc(N2CCC3(C2)CC3(F)F)c(OCC2CC2)n1 (stereo partly shown) is ___
Found: -1.72

Lookup: Fill in: log10 of EC50 of CCOC(=O)C(CC)(CC)NC(=O)c1ccc(N2CC(OC)C2)c(OCC2CC2)n1 is ___
Found: -2.19

Lookup: Fill in: log10 of EC50 of CCC(CC)(NC(=O)c1ccc(N2CC(OC)C2)c(OCC2CC2)n1)C(=O)NCCF is ___
Found: -0.48

Lookup: Fill in: log10 of EC50 of CC(C)(NC(=O)c1ccc(OCC2CC2)c(-c2cccc(Cl)c2)n1)c1nccs1 is ___
Found: -1.64

Lookup: Fill in: log10 of EC50 of CCC(CC)(NC(=O)c1ccc(OCC2CC2)c(-c2cccc(Cl)c2)n1)C(=O)NC is ___
Found: -1.29

Lookup: Fill in: log10 of EC50 of CC1(F)CN(c2ccc(C(=O)NC3(CC(N)=O)COC3)nc2OCC2CC2)C1 is ___
Found: -0.67

Lookup: Fill in: log10 of EC50 of Cc1nc(C(C)(C)NC(=O)c2ccc(OCC3CC3)c(-c3ccc(Cl)cc3)n2)no1 is ___
Found: -1.77

Lookup: Fill in: log10 of EC50 of CC(C)C[C@H](NC(=O)c1ccc(N2CC3(COC3)C2)c(OCC2CC2)n1)C(N)=O is ___
Found: -0.75
